Experiment description: qHTS for differential inhibitors of proliferation of Plasmodium falciparum line HB3 (AID 1886);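 further: parasites grown with compound for 72 h before SYBR Green readout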
Stated conditions: Plasmodium falciparum HB3 proliferation inhibition; series mostly up to 28.7 µM
Records with an inconclusive call do not appear. The source made the active and inactive calls. The call rests on the fitted dose curve; in most records, active means well fitted curve in the direction sought with a large enough effect; inconclusive means small, poorly fitted or top-dose-only effect, or another doubt; inactive means no such curve, though single readings can be large or run the other way.
Pick one: 1 for active, 0 for inactive

Look over these answered cases.
C[N+]1(CCCCC[N+]2(C)CCCC2)CCCC1 :: 0
Oc1ccc(O)cc1 :: 1

Then this compound:
Q: How was `COc1cc(-c2ccc(=O)[nH]n2)ccc1OC(F)F` classified in this test?
Ans: 0

====

Experiment description: qHTS of pediatric cancer cell lines to identify multiple opportunities for drug repurposing: Primary screen for NB-EBc1 cells (AID 1347095)
Stated conditions: NB-EBc1 neuroblastoma viability, CellTiter-Glo luminescence, 48 h; series mostly up to 46 µM
Inconclusive results are not listed. The source made the active and inactive calls. The call rests on the fitted dose curve; in most records, active means well fitted cell-killing curve with a large enough effect; inconclusive means small, poorly fitted or top-dose-only effect; inactive means no such curve, though single readings can be large or run the other way.
Please answer using one outcome listed in Yes = active, No = inactive

Below, 2 compounds whose answers are already recorded.
Cc1c(C(C)C)c(=O)n(-c2ccccc2)n1C :: No
CCN(CC)CCNC(=O)COc1ccc(Cl)cc1 :: No

Q: In this assay, the call recorded for `OC(CCN1CCCCC1)(c1ccccc1)c1ccccc1` was what?
Ans: No

Q: Entry CCCC(=O)Nc1ccc(OCC(O)CNC(C)C)c(C(C)=O)c1 (stereo not given) : call = ?
Ans: No

Q: Which result was noted for this compound in the test: `OCc1ccccc1O`
Ans: No

Q: Test call, this compound: `CC(C)n1nc(-c2cc3cc(O)ccc3[nH]2)c2c(N)ncnc21`
Ans: Yes

Q: Which result was noted for this compound in the test: `OC[C@H]1O[C@@H](n2cnc3c(=S)nc[nH]c32)[C@H](O)[C@@H]1O`
Ans: Yes

Q: Name the outcome recorded for `CCCN1CCCC[C@H]1C(=O)Nc1c(C)cccc1C` in the assay.
Ans: No

Q: So what was the verdict on `C[C@]12C=CC(=O)C=C1[C@@H](F)C[C@@H]1[C@@H]2[C@@H](O)C[C@@]2(C)[C@H]1CC[C@]2(O)C(=O)CO` in this test?
Ans: No

Q: Query: recorded result category for `CC(=O)OCC(=O)[C@@]1(O)CC[C@H]2[C@@H]3CCC4=CC(=O)C=C[C@]4(C)[C@H]3[C@@H](O)C[C@@]21C` in this test
Ans: No

Q: In this assay, the call recorded for Cc1c(F)c(N2CCNC(C)C2)cc2c1c(=O)c(C(=O)O)cn2C1CC1 (stereo not given) was what?
Ans: No

Q: Test call for this compound, please: `Nc1ccc(C(=O)Nc2ccccc2N)cc1`
Ans: Yes

Q: Hi, do you know how `CC1(C)O[C@@H]2C[C@H]3[C@@H]4C[C@H](F)C5=CC(=O)C=C[C@]5(C)[C@H]4[C@@H](O)C[C@]3(C)[C@]2(C(=O)CO)O1` came out in this test?
Ans: No
